System: Hepatoma cell line HepG2
Assay: CellTiter-Blue cell proliferation and viability assay, HepG2
Format: cell-based
Settings: Homo sapiens; HepG2, 1% FCS, 72 hours; read-out: IC50 of agent as single agent
measure.name: IC50 (µM)

{"columns": ["compound.smiles", "censoring.qualifier", "recorded.result"],
 "data": [
  ["COc1cc([C@@H]2c3cc4c(cc3[C@@H](O[C@@H]3O[C@@H]5CO[C@@H](C)O[C@H]5[C@H](O)[C@H]3O)[C@H]3COC(=O)[C@H]23)OCO4)cc(OC)c1O", ">", 100],
  ["COc1cccc2c1C(=O)c1c(O)c3c(c(O)c1C2=O)C[C@@](O)(C(=O)CO)C[C@@H]3O[C@H]1C[C@H](N)[C@H](O)[C@H](C)O1", "=", 5],
  ["CCc1c2c(nc3ccc(OC(=O)N4CCC(N5CCCCC5)CC4)cc13)-c1cc3c(c(=O)n1C2)COC(=O)[C@]3(O)CC", "=", 100]
]}

Cited source for all entries: patent US20160128999A1
